System: SCC-9
PROTOCOL SUMMARY: IC50 (cell viability, 72 h) (ln(µM))
PROPERTY: IC50 (ln)
Form: value (number only, do not type unit).

| SMILES STRING | IC50 (ln) |
| --- | --- |
| CC(C)C[C@@H](C=O)NC(=O)[C@H](CC(C)C)NC(=O)[C@H](CC(C)C)NC(=O)OCc1ccccc1 | -0.805 |

Field request: IC50 (ln) | item: CC[C@@H]1C(=O)N(C)c2cnc(Nc3ccc(C(=O)NC4CCN(C)CC4)cc3OC)nc2N1C1CCCC1
0.0591

Same again, this time with CC(=O)O[C@H]1C(=O)[C@@]2(C)[C@H]([C@H](OC(=O)c3ccccc3)[C@]3(O)C[C@H](OC(=O)[C@H](O)[C@@H](NC(=O)c4ccccc4)c4ccccc4)C(C)=C1C3(C)C)[C@]1(OC(C)=O)CO[C@@H]1C[C@@H]2O
-3.62

Same again, this time with COc1ncc(-c2ccc3nccc(-c4ccnnc4)c3c2)cc1NS(=O)(=O)c1ccc(F)cc1F
-1.11

Same again, this time with CO[C@H]1C[C@@H]2CC[C@@H](C)[C@@](O)(O2)C(=O)C(=O)N2CCCC[C@H]2C(=O)O[C@H]([C@H](C)C[C@@H]2CC[C@@H](O)[C@H](OC)C2)CC(=O)[C@H](C)/C=C(\C)[C@@H](O)[C@@H](OC)C(=O)[C@H](C)C[C@H](C)/C=C/C=C/C=C/1C
-0.629

Same again, this time with CC(=O)O[C@@]12CO[C@@H]1C[C@H](O)[C@@]1(C)C(=O)[C@H](O)C3=C(C)[C@@H](OC(=O)[C@H](O)[C@@H](NC(=O)OC(C)(C)C)c4ccccc4)C[C@@](O)([C@@H](OC(=O)c4ccccc4)[C@H]21)C3(C)C
-3.63

Same again, this time with Cc1[nH]c2ccccc2c1CCNCc1ccc(/C=C/C(=O)NO)cc1
0.43

Same again, this time with CC[C@@]1(O)C(=O)OCc2c1cc1n(c2=O)Cc2cc3ccccc3nc2-1
1.24

Same again, this time with Cc1cc(-c2nc(-c3ccc(OC(F)(F)F)cc3)no2)nn1Cc1ccnc(N2CCN(C3CC3)CC2)c1
-3.5
